Organism: Rattus norvegicus
method: Inhibitory activity against Src-dependent cell proliferation assay using rat fibroblasts
pIC50: −log10 of the molar value.
Binary call on pIC50: TRUE from 6 upward, FALSE beneath that.

• COc1cc(Nc2c(C#N)cnc3cc(C#Cc4ccccc4)ccc23)c(Cl)cc1Cl = FALSE
• N#Cc1cnc2cc(/C=C/c3ccncc3)ccc2c1Oc1ccc(Cl)cc1Cl = FALSE
• COc1cc(Nc2c(C#N)cnc3cc(/C=C/c4ccc(-c5ccccc5)cc4)ccc23)c(Cl)cc1Cl = FALSE
• COc1cc(Nc2c(C#N)cnc3cc(C#Cc4cccnc4)ccc23)c(Cl)cc1Cl = TRUE
• COc1cc(Nc2c(C#N)cnc3cc(/C=C/c4cccnc4)c(OC)cc23)c(Cl)cc1Cl = TRUE
• COc1cc(Nc2c(C#N)cnc3cc(/C=C/c4cccnc4)ccc23)c(Cl)cc1Cl = TRUE
• CCOC(=O)c1cnc2cc(/C=C/c3ccncc3)ccc2c1Nc1ccc(Cl)cc1Cl = FALSE
• COc1cc(Nc2c(C#N)cnc3cc(/C=C/c4ccncc4)c(OC)cc23)c(Cl)cc1Cl = TRUE
• COc1cc(Nc2c(C#N)cnc3cc(C#Cc4cccnc4)c(OC)cc23)c(Cl)cc1Cl = TRUE
• N#Cc1cnc2cc(C#Cc3cccnc3)ccc2c1Nc1ccc(Cl)cc1Cl = FALSE
• CCOc1cc(Nc2c(C#N)cnc3cc(/C=C/c4ccncc4)ccc23)c(Cl)cc1Cl = FALSE
• COc1cc(Nc2c(C#N)cnc3cc(C#Cc4ccccc4)c(OC)cc23)c(Cl)cc1Cl = FALSE
• C=Cc1ccc2c(Nc3cc(OC)c(Cl)cc3Cl)c(C#N)cnc2c1 = FALSE
• COc1cc(Nc2c(C#N)cnc3cc(/C=C/c4ccc5ccccc5c4)ccc23)c(Cl)cc1Cl = FALSE
• COc1cc(Nc2c(C#N)cnc3cc(C#Cc4ccncc4)ccc23)c(Cl)cc1Cl = FALSE
• N#Cc1cnc2cc(/C=C/c3ccncc3)ccc2c1NCc1ccc(Cl)cc1Cl = FALSE
• COc1cc(Nc2c(C#N)cnc3cc(C#Cc4ccccn4)ccc23)c(Cl)cc1Cl = FALSE
• O=C(O)c1cnc2cc(/C=C/c3ccncc3)ccc2c1Nc1ccc(Cl)cc1Cl = FALSE
• COc1cc(Nc2c(C#N)cnc3cc(/C=C/c4ccncc4)ccc23)c(Cl)cc1Cl = TRUE
• COc1cc(Nc2c(C#N)cnc3cc(C#Cc4ccc(-c5ccccc5)cc4)ccc23)c(Cl)cc1Cl = FALSE
• COc1cc(Nc2c(C#N)cnc3cc(/C=C/c4ccccc4)ccc23)c(Cl)cc1Cl = FALSE
• COc1cc(Nc2c(C#N)cnc3cc(CCc4ccncc4)ccc23)c(Cl)cc1Cl = FALSE
